- Tested on: Klebsiella pneumoniae
- test.protocol: Antibacterial activity against Klebsiella pneumoniae isolate Kp204 harboring IncA/C plasmid and blaIMP-4-qacG2-aacA4-catB3 array by Etest method
- Assay type: functional
measurement.label: MIC (µg/mL)

{"compound": "CO/N=C(\\C(=O)N[C@@H]1C(=O)N2C(C(=O)O)=C(COC(C)=O)CS[C@H]12)c1csc(N)n1", "unit.info": "µg/mL", "limit.qualifier": ">", "numeric.result": 32}
{"compound": "C[C@H]1[C@H](NC(=O)/C(=N\\OC(C)(C)C(=O)O)c2csc(N)n2)C(=O)N1S(=O)(=O)O", "unit.info": "µg/mL", "limit.qualifier": "≤", "numeric.result": 1}
{"compound": "NC[C@H]1O[C@H](O[C@H]2[C@H](O)[C@@H](O[C@H]3O[C@H](CO)[C@@H](O)[C@H](N)[C@H]3O)[C@H](N)C[C@@H]2N)[C@H](N)C[C@@H]1O", "unit.info": "µg/mL", "limit.qualifier": "=", "numeric.result": 8}
{"compound": "C[C@@H](O)[C@H]1C(=O)N2C(C(=O)O)=C(SCCNC=N)C[C@H]12 [IMIPENEM ANHYDROUS]", "unit.info": "µg/mL", "limit.qualifier": "=", "numeric.result": 8}

Just for reference, ChEMBL document CHEMBL1671859 is where these values come from.
